Measured pIC50 by item
Biological target: cGAS (Homo sapiens, UniProt Q8N884)
Sequence (Q8N884 whole entry): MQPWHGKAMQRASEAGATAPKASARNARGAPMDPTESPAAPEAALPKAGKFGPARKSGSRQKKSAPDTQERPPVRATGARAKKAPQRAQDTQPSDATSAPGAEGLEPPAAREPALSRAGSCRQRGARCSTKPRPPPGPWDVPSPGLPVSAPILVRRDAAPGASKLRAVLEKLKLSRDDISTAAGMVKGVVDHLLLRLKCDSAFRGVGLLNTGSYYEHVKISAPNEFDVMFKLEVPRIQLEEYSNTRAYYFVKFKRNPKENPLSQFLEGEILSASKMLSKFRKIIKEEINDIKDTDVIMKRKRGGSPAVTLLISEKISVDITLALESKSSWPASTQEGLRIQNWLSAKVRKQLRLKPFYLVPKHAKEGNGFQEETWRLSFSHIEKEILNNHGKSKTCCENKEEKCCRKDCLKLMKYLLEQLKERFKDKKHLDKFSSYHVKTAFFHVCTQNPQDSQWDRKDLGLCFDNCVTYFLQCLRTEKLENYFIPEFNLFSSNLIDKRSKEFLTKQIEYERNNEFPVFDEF
Test: cGAS enzymatic assay (FP/TR-FRET detection of cGAMP)
Format: biochemical
Set-up: The cGAS assay was used to screen 100,000 compounds with full-length human cGAS; 6xHis; made in house
Conditions: cGAS (30 nM); read-out: Inhibition cGAS
pIC50: −log10 of the molar value.

- COMPOUND: "O=C(O)[C@@H]1CCCN1c1nc(-c2ccncc2)nc2c1oc1ccccc12"
  ASSAYED_TARGET: "cGAS (Homo sapiens, UniProt Q8N884)"
  pIC50: "< 5.00"
- COMPOUND: "CO[C@H]1C[C@@H](C(=O)O)N(c2nc(C)nc3c2oc2ccccc23)C1"
  ASSAYED_TARGET: "cGAS (Homo sapiens, UniProt Q8N884)"
  pIC50: "5.00 to 6.00"
- COMPOUND: "O=C(O)C1CCCN(c2ncnc3c2oc2ccccc23)C1 (centres unmarked)"
  ASSAYED_TARGET: "cGAS (Homo sapiens, UniProt Q8N884)"
  pIC50: "< 5.00"
- COMPOUND: "CCc1nc(N2CCC[C@H]2C(=O)NS(=O)(=O)N(C)C)c2oc3ccccc3c2n1"
  ASSAYED_TARGET: "cGAS (Homo sapiens, UniProt Q8N884)"
  pIC50: "< 5.00"
- COMPOUND: "CCc1nc(N(C)CC(=O)O)c2oc3ccccc3c2n1"
  ASSAYED_TARGET: "cGAS (Homo sapiens, UniProt Q8N884)"
  pIC50: "5.00 to 6.00"
- COMPOUND: "N#Cc1nc(N2CCC[C@H]2C(=O)O)c2oc3ccccc3c2n1"
  ASSAYED_TARGET: "cGAS (Homo sapiens, UniProt Q8N884)"
  pIC50: "5.00 to 6.00"
- COMPOUND: "O=C(O)[C@@H]1CCCN1c1nc(C2CCCC2)nc2c1oc1ccccc12"
  ASSAYED_TARGET: "cGAS (Homo sapiens, UniProt Q8N884)"
  pIC50: "< 5.00"
- COMPOUND: "Cc1nc(N2CC[C@H]2C(=O)O)c2oc3ccccc3c2n1"
  ASSAYED_TARGET: "cGAS (Homo sapiens, UniProt Q8N884)"
  pIC50: "6.00 to 6.30"
- COMPOUND: "Cc1nc(N2C[C@@H](NC(=O)C3(c4ccncc4)CC3)C[C@H]2C(=O)O)c2oc3ccccc3c2n1"
  ASSAYED_TARGET: "cGAS (Homo sapiens, UniProt Q8N884)"
  pIC50: "6.00 to 6.30"
- COMPOUND: "Cc1nc(N2C[C@@H](NC(=O)Cc3ncc[nH]3)C[C@H]2C(=O)O)c2oc3ccccc3c2n1"
  ASSAYED_TARGET: "cGAS (Homo sapiens, UniProt Q8N884)"
  pIC50: "6.00 to 6.30"
- COMPOUND: "Cc1nc(N2C[C@@H](NC(=O)Cc3cccnc3)C[C@H]2C(=O)O)c2oc3ccccc3c2n1"
  ASSAYED_TARGET: "cGAS (Homo sapiens, UniProt Q8N884)"
  pIC50: "6.00 to 6.30"
- COMPOUND: "O=C(O)[C@@H]1CCCN1c1nc(C2CCC2)nc2c1oc1ccccc12"
  ASSAYED_TARGET: "cGAS (Homo sapiens, UniProt Q8N884)"
  pIC50: "5.00 to 6.00"
- COMPOUND: "Cc1nc(N2C[C@@H](Cc3nn[nH]n3)C[C@H]2C(=O)O)c2oc3ccccc3c2n1"
  ASSAYED_TARGET: "cGAS (Homo sapiens, UniProt Q8N884)"
  pIC50: "> 7.00"
- COMPOUND: "Cc1nc(N2C[C@@H](Nc3n[nH]cc3-c3ccccc3)C[C@H]2C(=O)O)c2oc3ccccc3c2n1"
  ASSAYED_TARGET: "cGAS (Homo sapiens, UniProt Q8N884)"
  pIC50: "6.00 to 6.30"
- COMPOUND: "Cc1nc(N2C[C@@H](NC(=O)Cc3ccc(N)nc3)C[C@H]2C(=O)O)c2oc3ccccc3c2n1"
  ASSAYED_TARGET: "cGAS (Homo sapiens, UniProt Q8N884)"
  pIC50: "6.30 to 7.00"
- COMPOUND: "Cc1nc(N2C[C@@H](N(C)C(=O)Cc3ccncc3)C[C@H]2C(=O)O)c2oc3ccccc3c2n1"
  ASSAYED_TARGET: "cGAS (Homo sapiens, UniProt Q8N884)"
  pIC50: "6.00 to 6.30"
- COMPOUND: "Cc1nc(N2C[C@@H](Nc3n[nH]cc3-c3ccccn3)C[C@H]2C(=O)O)c2oc3ccccc3c2n1"
  ASSAYED_TARGET: "cGAS (Homo sapiens, UniProt Q8N884)"
  pIC50: "5.00 to 6.00"

Data provenance: patent US20220073532A1
